- System: T. cruzi-infected H9C2 cardiomyocytes, high-content imaging
- Protocol: intracellular T. cruzi amastigote inhibition, imaging, H9C2 host cardiomyocytes, host toxicity (AID 1159565);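 further: infected cells incubated 72 h after plating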
- Stated Conditions: measured here: amastigotes per cell
Exercise: state measured log10 of IC50 for each of the compounds provided.
# log10 transformed; quantity=IC50; unit=µM

{"columns": ["Compound", "Test Target", "Numeric Value"],
 "data": [
  ["NC(=O)c1ncccc1Nc1nc(NC2CCC(O)CC2)ncc1Br (stereo unspecified)", "T. cruzi-infected H9C2 cardiomyocytes, high-content imaging", -0.30],
  ["C[C@@H](Oc1cc(-n2cnc3cc(N)ccc32)sc1C(N)=O)c1ccccc1Cl", "T. cruzi-infected H9C2 cardiomyocytes, high-content imaging", 0.70],
  ["CCc1cccc(CC)c1-n1c(SCC(=O)NC(=O)NCc2ccco2)nnc1-c1cccnc1", "T. cruzi-infected H9C2 cardiomyocytes, high-content imaging", 0.90],
  ["CN(C)CCN(C)Cc1ccc(Cl)cc1NS(=O)(=O)c1ccc(Cl)c(Cl)c1", "T. cruzi-infected H9C2 cardiomyocytes, high-content imaging", 0.30],
  ["Cc1ccc(NC(=O)c2ccnc(N3CCCC3)c2)cc1-c1ccsc1C(N)=O", "T. cruzi-infected H9C2 cardiomyocytes, high-content imaging", 0.90],
  ["CCOc1cnn(C)c(=O)c1Nc1ccc(C(=O)NCc2ccc(F)cc2)cc1", "T. cruzi-infected H9C2 cardiomyocytes, high-content imaging", -0.89],
  ["Cc1ccccc1NS(=O)(=O)c1ccc2[nH]cc(C(=O)NC3CCCC3)c(=O)c2c1", "T. cruzi-infected H9C2 cardiomyocytes, high-content imaging", 1.40],
  ["C[C@@H](Oc1cc(-n2cnc3ccc(CC(O)CO)cc32)sc1C(N)=O)c1ccccc1Cl (stereo partly specified)", "T. cruzi-infected H9C2 cardiomyocytes, high-content imaging", 1.11],
  ["O=C(c1ccccc1)N1CCC(C(=O)N2CCC(Oc3ccccc3Cl)CC2)CC1", "T. cruzi-infected H9C2 cardiomyocytes, high-content imaging", 1.40],
  ["Cc1ccc(NC(=O)C(C)n2nc([N+](=O)[O-])c(Br)c2C)cc1Cl (stereo unspecified)", "T. cruzi-infected H9C2 cardiomyocytes, high-content imaging", 0.51]
]}

Provide log10 of IC50 for all items below, preserving their order.
1. Clc1ccc(Sc2cnccc2N2CCOCC2)cc1
2. N#Cc1ccc(S(=O)(=O)N2CCC3(CCN(c4ccccc4)C3=O)CC2)cc1
3. Cc1[nH]n2c(=O)c3c(nc2c1-c1ccc(Cl)cc1)CCCC3
4. COc1ccc2ncc(=O)n(CCN3CC[C@H](NCc4ncc(Cl)c5[nH]ncc45)[C@H](O)C3)c2n1
5. COc1cccc(CCNC(=O)C(c2cn[nH]c2)N2CCN(c3ccc(Cl)cc3)CC2)c1 (stereo unspecified)
6. O=C(Nc1ccc(Br)cn1)c1ccc(Cn2cnc([N+](=O)[O-])n2)cc1

-1.00
-0.20
-0.60
0.20
-1.80
-1.10

Working through the 3 compounds below one at a time, give log10 of IC50 for each.
1. O=C(Nc1n[nH]c(-c2ccccn2)n1)C1CC1c1ccccc1 (stereo unspecified)
2. COc1ccc(NC(=O)c2ccc(NC(=O)CN(c3ccccc3C)S(C)(=O)=O)cc2)cc1
3. CCC(=O)Nc1ccc(C(=O)Nc2ccccc2-c2ccccc2)cc1

[1.20, 1.30, -0.60]

Result for O=C(NC(CO)c1ccc(F)cc1)c1ccc(-c2c[nH]c3ncccc23)s1 (stereo unspecified) , tested on T. cruzi-infected H9C2 cardiomyocytes, high-content imaging, log10 of IC50: 1.11

* * *

- System: T. cruzi-infected H9C2 cardiomyocytes, high-content imaging
- Protocol: intracellular T. cruzi amastigote inhibition, imaging, H9C2 host cardiomyocytes, host toxicity (AID 1159565);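 further: infected cells incubated 72 h after plating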
- Stated Conditions: measured here: H9C2 host cell toxicity
Reported Metric: pIC50
Numbers only, as −log10 of the molar value.

{"columns": ["Molecule", "pIC50"],
 "data": [
  ["Cc1cc(C)cc(NS(=O)(=O)c2cc(-c3cc(C)[nH]n3)ccc2C)c1", 4.49],
  ["Cc1ccccc1NS(=O)(=O)c1ccc2[nH]cc(C(=O)NC3CCCCC3)c(=O)c2c1", 4.60],
  ["COc1cc(OC)cc(C(NS(=O)(=O)c2ccc(Cl)c(C(F)(F)F)c2)c2nccn2C)c1 (stereo not given)", 5.00]
]}

Record Cc1nn(-c2nc(N)nc(-c3ccccn3)n2)c(N)c1-c1ccccc1 has T. cruzi-infected H9C2 cardiomyocytes, high-content imaging pIC50 equal to 4.89

* * *

I'd appreciate it if you could supply IC50 values for the items below.
- System: T. cruzi-infected H9C2 cardiomyocytes, high-content imaging
- Protocol: intracellular T. cruzi amastigote inhibition, imaging, H9C2 host cardiomyocytes, host toxicity (AID 1159565);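 further: infected cells incubated 72 h after plating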
- Stated Conditions: measured here: H9C2 host cell toxicity

Solved entries:
{"columns": ["Molecule", "IC50"],
 "data": [
  ["COc1ccc2nccc(NC(=O)C3(OC)CCN(CC(O)c4ccc5c(c4)OCCO5)CC3)c2n1 (configuration not stated)", "16 µM"],
  ["CN(C)Cc1cccc(Nc2nccc(-c3ccc(NCCN)c(C#N)c3)n2)c1", "2 µM"],
  ["COc1cccc(-c2cc(C(F)(F)F)nc(-n3ccc([N+](=O)[O-])n3)n2)c1", "> 50 µM"],
  ["CC(=O)Nc1ccc(-c2csc(NC(=O)c3ccc([N+](=O)[O-])s3)n2)cc1", "5 µM"],
  ["COc1ccc(-c2cnc(C)o2)cc1S(=O)(=O)Nc1ccc(C)cc1C", "> 50 µM"]
]}

Answer for every listed entry: what is its IC50? The entries follow.
1. O=C(Cn1cnc2cc([N+](=O)[O-])ccc2c1=O)NCCc1ccc(Cl)cc1Cl
2. CC1(Oc2cncc(Cl)c2)CCN(Cc2cc3ccccc3[nH]2)C1 (configuration not stated)

["> 50 µM", "10 µM"]

* * *

Provide the recorded IC50 for the entries that follow.
- Test system: T. cruzi-infected H9C2 cardiomyocytes, high-content imaging
- Protocol: intracellular T. cruzi amastigote inhibition, imaging, H9C2 host cardiomyocytes, host toxicity (AID 1159565);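 further: infected cells incubated 72 h after plating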
- Stated Conditions: measured here: H9C2 host cell toxicity

Please review the following examples before continuing.
{"columns": ["Molecule", "Result"],
 "data": [
  ["Cc1nn(C2CCS(=O)(=O)C2)c(C)c1CN(C)C(=O)C=Cc1sc2ccccc2c1Cl (stereo not given)", "> 50 µM"],
  ["O=C(CSc1ccc(F)cc1)N[C@@H](Cc1cnc[nH]1)C(=O)NCCc1ccccc1", "> 50 µM"],
  ["COc1ccc(-c2nc3ncccc3o2)cc1NC(=O)c1cccs1", "> 50 µM"]
]}

I would be grateful if you could provide IC50 for each of the following entries.
1. CCN(CC)S(=O)(=O)c1ccc(OC)c(NC(=O)c2ccc([N+](=O)[O-])s2)c1
2. C[C@@H](Oc1cc(-n2cnc3ccc(C(O)CO)cc32)sc1C(N)=O)c1ccccc1C(F)(F)F (stereo not given in full)
3. CN1CCCN(C(=O)c2ccc(N3CCCC3)cc2Cl)CC1
4. c1ccc2[nH]c(-c3ccc(N4CCCC4)nc3)nc2c1
5. O=C(NC(c1ccc(Cl)cc1)c1cnccn1)C1CCN(C(=O)Nc2cccc(C(F)(F)F)c2)CC1 (stereo not given)

1. > 50 µM
2. 0.63 µM
3. > 50 µM
4. > 50 µM
5. > 50 µM

// for each molecule in input: emit IC50
1. O=C1CCCCCC1(Cc1cnc[nH]1)c1ccc(Cl)cc1Cl (stereo not given)
2. O=C1OCc2ccc(Nc3nccc(-c4cnn5ncccc45)n3)cc21

> 50 µM
0.025 µM

* * *

- Tested on: T. cruzi-infected H9C2 cardiomyocytes, high-content imaging
- Protocol: intracellular T. cruzi amastigote inhibition, imaging, H9C2 host cardiomyocytes, host toxicity (AID 1159565);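 further: infected cells incubated 72 h after plating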
- Stated Conditions: measured here: amastigotes per cell
So I've got a bunch of molecules here, and I need their IC50 values.
Answers are plain numbers, in nM.

Fill in IC50 for each of the 8 molecules listed.
1. c1ccc(-c2nc(NC3CCCC3)c3ccccc3n2)nc1
2. Cc1ccc(S(=O)(=O)Nc2ccc(CN3CCN(C(=O)c4cccc(C)c4)CC3)cc2)cc1
3. COc1cc(Cl)c(C)cc1NC(=O)c1ccc([N+](=O)[O-])s1
4. Cc1nc(-c2ccc3c(c2)OCO3)sc1C(=O)NCc1ccc2c(c1)OCO2
5. Cc1c(C#N)c([N+](=O)[O-])nn1Cc1cccc(Cl)c1Cl
6. O=C(Nc1ccccc1)Nc1nc(-c2ccccn2)cs1
7. COc1ccc(C2CC(c3ccc(NS(C)(=O)=O)cc3)=NN2C(=O)c2cccs2)cc1OC (stereo not given)
8. Cc1ccc(C)c(-n2nnnc2Sc2nc([N+](=O)[O-])nn2C)c1

2000
320
500
500
40
630
16000
250

For Cc1ccccc1CNC(=O)CN(Cc1ccccn1)Cc1ccccn1 on T. cruzi-infected H9C2 cardiomyocytes, high-content imaging, measured IC50 was 6300
